A set of compounds tested on HCT-15, with measured GI50:

Recorded results for 5 compounds are shown here.
O=[N+]([O-])c1ccc(/C=N/C23CC4CC(CC(C4)C2)C3)cc1
> 100 µM
CCOC(=O)C1C(=O)CC1(C)C (stereo unspecified)
> 10 µM
CCc1c(C)c(C#N)c(=S)n(C2OC(COC(C)=O)C(OC(C)=O)C(OC(C)=O)C2OC(C)=O)c1C (stereo unspecified)
> 100 µM
CCOC(=O)c1[nH]c(COC(C)=O)c(CCCOC(C)=O)c1CCCOC(C)=O
> 100 µM
Cc1ccc(-c2[nH]c(=O)n(C3OC(CO)C(O)C(O)C3O)c(=O)c2C#N)cc1 (stereo unspecified)
> 100 µM

Then this compound:
Value (GI50, HCT-15) for record `O=c1oc2ccc(-n3c(=O)c4ccccc4c4ccccc4c3=O)cc2c2ccccc12` = > 100 µM
